Assay: physchem
Settings: water, thermodynamic from solid
readout-label: solubility

Recorded solubility (molecule Cl.FC(F)(F)c1ccc(CNc2ccc(Cc3c[nH]c4ncc(Cl)cc34)cn2)cn1 [Compound I Form A] ): < 2000 µg/mL
